Test: Gamma irradiation of aqueous 1% taurolidine solution, radiolysis products
Format: physicochemical
Settings: approx. 25 gKy, aqueous 1% solution in 500 ml glass bottles; IR, HPLC/MS, amino acid analysis
Readout Type: content after γ-irradiation of a 1% taurolidine solution (%)
Report only the number, with the unit % understood.

Example entries begin here.
Q: Dear colleague, I am looking for the recorded content after γ-irradiation of a 1% taurolidine solution of the following compound: OCO [methylene glycol]
Ans: 0.0160

Q: Entry O=S1(=O)CCN(CN2CCS(=O)(=O)NC2)CN1 [taurolidine] has what content after γ-irradiation of a 1% taurolidine solution?
Ans: 0.78

Q: State the recorded content after γ-irradiation of a 1% taurolidine solution for this entry: O=C=O [CO2]
Ans: 0.0019

Q: Any idea what content after γ-irradiation of a 1% taurolidine solution was measured for NCCS(N)(=O)=O [taurinamide] ?
Ans: 0.0171

Q: What value of content after γ-irradiation of a 1% taurolidine solution has been reported for the following compound? O=S1(=O)CCN=CN1 [dehydrotaurultam]
Ans: 0.156

New cases:
Q: Bench note: what content after γ-irradiation of a 1% taurolidine solution did NCCS(=O)(=O)O [taurine] show?
Ans: 0.0106
